Answer each item with its documented LD50.
# Test: in vivo
# Condition summary: mouse, po
The figure you give is taken to be in mg/kg; do not add the unit.

Q) Query: LD50; subject: CC(C)NCC(O)c1ccc(O)c(NS(C)(=O)=O)c1 (centres unmarked) [Soterenol, reference compound]
A) 750

Q) Quick one: CCOc1ccc(CNc2cc(C(O)CNC(C)(C)C)ccc2O)cc1.Cl (centres unmarked)
A) 400

Q) And what about the molecule COc1c(C)cc(CNc2cc(C(O)CNC(C)(C)C)ccc2O)cc1C.Cl (centres unmarked) ?
A) 1500

Q) What would you report for CN(C)c1ccc(CNc2cc(C(O)CNC(C)(C)C)ccc2O)cc1.Cl (centres unmarked) ?
A) 700

Q) Also need Cc1ccc(CNc2cc(C(O)CNC(C)(C)C)ccc2O)cc1.Cl (centres unmarked) , thanks.
A) 700

Q) Next molecule: COc1ccc(CNc2cc(C(O)CNC(C)(C)C)ccc2O)cc1.Cl (centres unmarked)
A) 300

* * *

# Test: in vivo
# Condition summary: mouse, po
Exercise: state measured LD50 for each of the compounds provided.
Unit mg/kg implied. Number only.

Q) Fill in the blank: the reported LD50 of CC(C)(C)NCC(O)c1ccc(O)c(NCc2ccc([N+](=O)[O-])cc2)c1.Cl (centres unmarked) is ____.
A) 400

Q) For CC(C)Oc1ccc(CNc2cc(C(O)CNC(C)(C)C)ccc2O)cc1.Cl (centres unmarked) then?
A) 400

* * *

Consider the following compounds; for each one, report its LD50.
# Test: in vivo
# Condition summary: mouse, iv
Record the value in mg/kg, omitting the unit from your answer.

Q) Name the recorded LD50 for CC(C)(C)NCC(O)c1ccc(O)c(NC(=O)c2ccc(Cl)c(Cl)c2)c1.Cl (stereo not shown) .
A) 60

Q) Same lookup for CC(C)(C)NCC(O)c1ccc(O)c(NC(=O)c2cc(O)cc(O)c2)c1.Cl (stereo not shown) , please.
A) 20

Q) Next up: CC(C)(C)NCC(O)c1ccc(O)c(NCc2ccc(OCC(N)=O)cc2)c1 (stereo not shown)
A) 20

Q) Here is the next compound: CN(C)c1ccc(CNc2cc(C(O)CNC(C)(C)C)ccc2O)cc1.Cl (stereo not shown)
A) 20

Q) What about Cc1ccc(CNc2cc(C(O)CNC(C)(C)C)ccc2O)cc1.Cl (stereo not shown) ?
A) 20

Q) Now the same for CC(C)NCC(O)c1ccc(O)c(NS(C)(=O)=O)c1 (stereo not shown) [Soterenol, reference compound]
A) 60

Q) For COCCOc1ccc(CNc2cc(C(O)CNC(C)(C)C)ccc2O)cc1.Cl (stereo not shown) then?
A) 20

Q) // query: CC(C)(C)NCC(O)c1ccc(O)c(NC(=O)c2ccc(Cl)cc2)c1.Cl (stereo not shown)
A) 60

Q) Lookup CC(C)(C)NCC(O)c1ccc(O)c(NCc2ccc([N+](=O)[O-])cc2)c1.Cl (stereo not shown)
A) 60

Q) Now give it for COc1ccc(CNc2cc(C(O)CNC(C)(C)C)ccc2O)cc1.Cl (stereo not shown) too.
A) 20

* * *

# Test system: β2 -stimulation, lungs guinea pig
# Test: Bronchospasmolytic effect (β2 -stimulation), Konzett-Rossler technique in anaesthetized guinea pig lungs
# Format: in vivo
# Condition summary: Cavia porcellus, iv, doses as free base of the racemic compound, read-out: β2 -stimulation lungs guinea pig ED 50 i.v.
Please provide measured log10 of ED50 for the entries that follow.
Please interpret these as log10 of ED50 where ED50 is in mg/kg.

Q) Which value of log10 of ED50 has been reported for CC(C)(C)NCC(O)c1ccc(O)c(NCc2cccc(O)c2)c1 (stereo not drawn) in the records?
A) -2.00

Q) Can you check CC(C)(C)NCC(O)c1cc(O)cc(O)c1 (stereo not drawn) [Terbutaline, reference compound] next?
A) -1.52

Q) Consider next the molecule CC(C)(C)NCC(O)c1ccc(O)c(NCc2ccc(OCC(N)=O)cc2)c1 (stereo not drawn) in the same way.
A) -2.00

Q) Again, but for CC(C)(C)NCC(O)c1ccc(O)c(CO)c1 (stereo not drawn) [Saloutamol, salbutamol, reference compound]
A) -2.00

Q) What would you report for CC(C)NCC(O)c1cc(O)cc(O)c1 (stereo not drawn) [Orciprenaline, reference compound] ?
A) -1.00

Q) Also, COc1cc(CNc2cc(C(O)CNC(C)(C)C)ccc2O)ccc1O.Cl (stereo not drawn) please.
A) -1.70

Q) Quick one: COc1ccc(CNc2cc(C(O)CNC(C)(C)C)ccc2O)cc1.Cl (stereo not drawn)
A) -2.52

Q) Query CC(C)(C)NCC(O)c1ccc(O)c(NCc2ccc([N+](=O)[O-])cc2)c1.Cl (stereo not drawn) next
A) -2.00

Q) Do the same for CC(C)(C)NCC(O)c1ccc(O)c(NC(=O)c2cc(O)cc(O)c2)c1.Cl (stereo not drawn) please
A) -0.52

Q) Would you mind doing CC(C)(C)NCC(O)c1ccc(O)c(NC(=O)c2ccc(Cl)c(Cl)c2)c1.Cl (stereo not drawn) as well?
A) -1.00

Q) Follow-up entry: CN(C)c1ccc(CNc2cc(C(O)CNC(C)(C)C)ccc2O)cc1.Cl (stereo not drawn)
A) -1.70

Q) Thanks! And COc1ccc(C(=O)Nc2cc(C(O)CNC(C)(C)C)ccc2O)cc1.Cl (stereo not drawn) ?
A) -1.00

Q) Now this one: CC(C)(C)NCC(O)c1ccc(O)c(NC(=O)c2ccc([N+](=O)[O-])cc2)c1.Cl (stereo not drawn)
A) -1.00

Q) Try this molecule too: CC(C)Oc1ccc(CNc2cc(C(O)CNC(C)(C)C)ccc2O)cc1.Cl (stereo not drawn)
A) -1.52

Q) Entry CC(C)(C)NCC(O)c1ccc(O)c(NCc2ccc(O)cc2)c1.Cl (stereo not drawn) please
A) -2.00

Q) Queued: CC(C)(C)NCC(O)c1ccc(O)c(NC(=O)c2cccc([N+](=O)[O-])c2)c1.Cl (stereo not drawn)
A) -0.52

Q) Next molecule up: COc1c(C)cc(CNc2cc(C(O)CNC(C)(C)C)ccc2O)cc1C.Cl (stereo not drawn)
A) -1.52

Q) Can you handle Cc1ccc(CNc2cc(C(O)CNC(C)(C)C)ccc2O)cc1.Cl (stereo not drawn) next?
A) -1.15

Q) Query CC(C)NCC(O)c1ccc(O)c(O)c1 (stereo not drawn) [Isoprenaline, reference compound] next
A) -2.30

Q) CC(C)(C)NCC(O)c1ccc(O)c(NC(=O)c2ccc(Cl)cc2)c1.Cl (stereo not drawn) ?
A) -0.30

Q) Query CC(C)NCC(O)c1ccc(O)c(NS(C)(=O)=O)c1 (stereo not drawn) [Soterenol, reference compound] next
A) -1.70

Q) Item: COc1ccc(CNc2cc(C(O)CNC(C)(C)C)ccc2O)cc1OC.Cl (stereo not drawn)
A) -2.00

Q) Likewise for COCCOc1ccc(CNc2cc(C(O)CNC(C)(C)C)ccc2O)cc1.Cl (stereo not drawn) ?
A) -2.00

Q) And what about the molecule CCOc1ccc(CNc2cc(C(O)CNC(C)(C)C)ccc2O)cc1.Cl (stereo not drawn) ?
A) -2.00

* * *

# Test: in vivo
# Condition summary: mouse, iv
Provide the reported LD50 of each item.
Entry rule: numbers only, all in mg/kg.

Q) Quick one: LD50 for CC(C)(C)NCC(O)c1ccc(O)c(NCc2ccc(O)cc2)c1.Cl (stereo not drawn) ?
A) 20

Q) Query CC(C)(C)NCC(O)c1ccc(O)c(NCc2cccc(O)c2)c1 (stereo not drawn) next
A) 20

Q) Also COc1ccc(C(=O)Nc2cc(C(O)CNC(C)(C)C)ccc2O)cc1.Cl (stereo not drawn) , if possible.
A) 80

Q) Subsequent entry: COc1ccc(CNc2cc(C(O)CNC(C)(C)C)ccc2O)cc1OC.Cl (stereo not drawn)
A) 20

Q) Follow-up item: CCOc1ccc(CNc2cc(C(O)CNC(C)(C)C)ccc2O)cc1.Cl (stereo not drawn)
A) 20

* * *

# Test: in vivo
# Condition summary: mouse, po
Measured endpoint: LD50

Q) Any idea what LD50 was measured for COCCOc1ccc(CNc2cc(C(O)CNC(C)(C)C)ccc2O)cc1.Cl (centres unmarked) ?
A) > 1000 mg/kg

Q) What would you report for COc1ccc(CNc2cc(C(O)CNC(C)(C)C)ccc2O)cc1OC.Cl (centres unmarked) ?
A) > 2000 mg/kg

Q) Now consider CC(C)(C)NCC(O)c1ccc(O)c(NCc2ccc(OCC(N)=O)cc2)c1 (centres unmarked) .
A) > 1000 mg/kg

Q) How about this molecule: CC(C)(C)NCC(O)c1ccc(O)c(NC(=O)c2ccc(Cl)cc2)c1.Cl (centres unmarked)
A) > 2000 mg/kg

Q) Next molecule up: COc1ccc(C(=O)Nc2cc(C(O)CNC(C)(C)C)ccc2O)cc1.Cl (centres unmarked)
A) > 2000 mg/kg

* * *

# Test: in vivo
# Condition summary: mouse, po
Measured endpoint: LD50

Q) Tell me the measured LD50 of CC(C)(C)NCC(O)c1ccc(O)c(NCc2cccc(O)c2)c1 (stereo not drawn) , please.
A) ≥ 2000 mg/kg

Q) Do the same for CC(C)(C)NCC(O)c1cc(O)cc(O)c1 (stereo not drawn) [Terbutaline, reference compound] please
A) > 2000 mg/kg

Q) Now the compound CC(C)(C)NCC(O)c1ccc(O)c(NC(=O)c2cc(O)cc(O)c2)c1.Cl (stereo not drawn)
A) > 2000 mg/kg
